B1: Twister Ribozyme (parent)
chain: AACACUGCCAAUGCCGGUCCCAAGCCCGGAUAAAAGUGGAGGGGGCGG

# Variants of: B1
# Assay: self-cleavage, relative activity (ratio to wild type); higher = more cleavage; co-transcriptional
Property measured: self-cleavage

// solved cases for self-cleavage follow
{"Mutant code": "G7A A33G", "Observed value": 0.243}
{"Mutant code": "A11G G17C", "Observed value": 0.0792}
{"Mutant code": "C20U C26U", "Observed value": 0.128}
{"Mutant code": "C5U A10G", "Observed value": 0.869}
{"Mutant code": "C9G C26U", "Observed value": 0.0719}
{"Mutant code": "A10G C21G", "Observed value": 0.0634}
{"Mutant code": "G38U G44U", "Observed value": 0.915}
{"Mutant code": "C8G G47C", "Observed value": 0.186}
{"Mutant code": "C15A G41A", "Observed value": 0.189}
{"Mutant code": "A2U U6C", "Observed value": 0.0754}

Please report self-cleavage for every entry that follows.
1. G7A G43A
2. A33C G48C
3. C5A G16U
4. C46G
5. A35C G41A

[0.176, 1.1, 0.237, 0.951, 0.611]

Please report self-cleavage for every entry that follows.
1. C5U C26U
2. G17U G43C

0.0759
0.0878

The values you see were collected from the RNAGym collection of RNA variant scans (doi:10.7554/elife.80360).
